FYI, the data here is from patent US20170145112A1.

Catalogue of koff readings, one per entry.
Biological target: T1, Human complement Factor D, mature (human, UniProt P00746 27-253)
T1 construct: In the TR-FRET assay the factor D was bought from Complement Technology; In the hemolysis assay it was the factor D of C1q-depleted human serum; also called human Factor D; hFD
T1 sequence (P00746 27-253): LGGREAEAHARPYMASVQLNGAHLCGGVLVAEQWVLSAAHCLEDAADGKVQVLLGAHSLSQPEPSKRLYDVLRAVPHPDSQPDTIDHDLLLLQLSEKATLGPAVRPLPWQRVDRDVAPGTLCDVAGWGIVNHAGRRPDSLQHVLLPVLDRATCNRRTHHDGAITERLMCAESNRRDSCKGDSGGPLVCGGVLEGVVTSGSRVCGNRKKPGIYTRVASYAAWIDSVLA
Assay: SPR (Biacore T200): Fab captured with anti-huFab kit, human Factor D injected, 25 C, 1:1 model;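 also: sensorgrams were corrected by subtracting a blank injection of running buffer before fitting kinetic and affinity constants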
Report the figure in s⁻¹ without appending any unit label.

hu20D12.v2.11 Fab (Fab, V domains shown) VH: EVQLVQSGAEVKKPGASVKVSCKASGYTFTSYYMYWVRQAPGQGLEWIGEINPTSGGTNFNEKFKSRATLTVDTSTSTAYLELSSLRSEDTAVYYCAREGGFAYWGQGTLVTVSS VL: DIQMTQSPSSLSASVGDRVTITCKASQNVDTDVAWFQQKPGKAPKGLIYSASSRRSGVPSRFSGSGSGTDFTLTISSLQPEDFATYYCQQYNNYPLTFGQGTKVEIKR :: 0.03

Now take the following binder into account.
Query string: Query (binder): hu20D12.v2.10 Fab (Fab, V domains shown) VH: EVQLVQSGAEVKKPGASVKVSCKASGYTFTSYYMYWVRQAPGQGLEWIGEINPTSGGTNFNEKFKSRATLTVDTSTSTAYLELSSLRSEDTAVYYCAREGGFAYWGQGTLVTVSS VL: DIQMTQSPSSLSASVGDRVTITCKASQNVDTDVAWFQQKPGKAPKGLIYSASSRKSGVPSRFSGSGSGTDFTLTISSLQPEDFATYYCQQYNNYPLTFGQGTKVEIKR ; field requested: koff
Result string: 0.03
